These entries and their values trace back to paper PMC6468809.

target-or-system: TbPar42-PPIase (264-383) (Trypanosoma brucei brucei)
Sequence (Q57XM6 264-383): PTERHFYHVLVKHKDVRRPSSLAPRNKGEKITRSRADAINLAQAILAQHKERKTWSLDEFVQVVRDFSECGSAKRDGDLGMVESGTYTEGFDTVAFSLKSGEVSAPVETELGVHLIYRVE
*1 amine or outer side, *2 acyl side, *3 side chain or, on linkers, in order; H or OH if unused. Where a SMILES comes first, the peptide text is derived from it. [ ]: non-standard residue; d: D form. pT = C[C@@H](OP(=O)(O)O)[C@H](N)C(=O)O; Suc = O=C(CCC(=O)[*:2])[*:1]
quantity-measured: Kd

>  <compound>
C[C@H](NC(=O)[C@@H]1CCCN1C(=O)[C@@H](NC(=O)[C@H](C)NC(=O)CCC(=O)O)[C@@H](C)OP(=O)(O)O)C(N)=O [Suc-Ala-pThr-Pro-Ala-NH2] (Suc-A[pT]PA-NH2)

>  <target-or-system>
TbPar42-PPIase (264-383) (Trypanosoma brucei brucei)

>  <result>
~10 mM

$$$$
